Entries and their measured folding enthalpy follow.
# assay_explanation: folding enthalpy; higher = less favourable; fluorescence melt of hairpins on a sequencing array, two-state fit
# assay_setup: sodium 0.088 M
Please don't drop the unit; write it after the number.

The cases that follow already have their folding enthalpy on record.
Record summary for GCCATGACGAAAGTCGGC (((..(((....)))))) : reported folding enthalpy = -20 kcal/mol

# folding enthalpy (sequence: GGGTCACGAAAGTGTCCC (((.(((....))).))) ) is -39.8 kcal/mol

Lab book: folding enthalpy of GATCCACTTCTGGATC ((((((....)))))) noted as -34.8 kcal/mol

// recorded folding enthalpy for GGGTCCGAAAGGAACCCC ((((((....)))..))) : -13.9 kcal/mol

The recorded folding enthalpy for entry GATCGATAATCGATC ((((((...)))))) equals -37.7 kcal/mol

Lookup result for GAAGTACGAAAGTAGTTC (((.(((....))).))) ; measured folding enthalpy: -34.8 kcal/mol

Summary for this sequence, GAGGGCGAAAGCCGGCTC ((((((....)))..))) : folding enthalpy is -12.1 kcal/mol

Record summary for GGTATCGAAAGATTAACC ((((((....)))..))) : reported folding enthalpy = -17 kcal/mol

folding enthalpy for GGGCCGGGAAACTGGCCC (((((.(....).))))) is -31.9 kcal/mol

Input GTAACTCGAAAGAGGTAC (((.(((....))).))) . Output folding enthalpy: -28.7 kcal/mol

***
GGTCCAGGAAACTAGACC ((((.((....)).)))) has a reported folding enthalpy of -29.7 kcal/mol

Recorded values, source the array DNA melting data of Ke et al. (doi:10.1101/2024.01.08.574731).
